Tested on: Mycobacterium avium
protocol.conditions: 104 mc'2 3
measurement.kind: MIC (µg/mL)
Report the value in µg/mL with no unit label.

For this compound ( `CCCOc1ccc(-c2cn(CCN(CC)CC)c3ccccc3c2=O)cc1` ), measured MIC is 8

For this compound ( `CN(C)CCCN1c2ccccc2Sc2ccc(Cl)cc21` ), measured MIC is 1

----------
Answer each item with its documented MIC.
System: Mycobacterium avium
protocol.conditions: 104 mc'2 3

For this compound ( CN(C)CCCN1c2ccccc2Sc2ccc(Cl)cc21 [CHLORPROMAZINE] ), measured MIC is 0.78 µg/mL

For this compound ( `CCCOc1ccc(-c2cn(CCN(CC)CC)c3ccccc3c2=O)cc1` ), measured MIC is 3.12 µg/mL

For this compound ( `CCCOc1ccc(-c2cn(CCN3CCCCCC3)c3ccccc3c2=O)cc1` ), measured MIC is < 0.195 µg/mL

For this compound ( CSc1ccc2c(c1)N(CCC1CCCCN1C)c1ccccc1S2 (stereo not given) [THIORIDAZINE] ), measured MIC is 1.56 µg/mL

For this compound ( `CCCOc1ccc(-c2cn(CCN3CCCCC3)c3ccccc3c2=O)cc1` ), measured MIC is < 0.195 µg/mL
